Each item that follows carries a reported self-cleavage.
B1: Osa-1-4 twister ribozyme (parent)
chain: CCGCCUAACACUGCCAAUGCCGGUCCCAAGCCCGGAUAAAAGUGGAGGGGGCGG

# Variants of: B1
# experiment: self-cleavage, relative activity (ratio to wild type); higher = more cleavage; co-transcriptional
value_kind: self-cleavage

seq_string="CCGCCUAACACUGCCAAUGCCGGUCCCAAGCCGGGUUAAAAGUGGAGGGGGCGG [A36U C33G]" value_kind=self-cleavage recorded_measurement=0.08
seq_string="CCGCCUAACACUGCCAAUGCCGGACCCAAGCCCGGAUCAAAGUGGAGGGGGCGG [A38C U24A]" value_kind=self-cleavage recorded_measurement=0.16
seq_string="CCGCCUAACACUGCCAAUGCCGGUACCAAGCCCGGAUAAAAGUGGAGAGGGCGG [C25A G48A]" value_kind=self-cleavage recorded_measurement=0.03
seq_string="CCGCCUAACACUGCCAAUGCUGGUCCCAAGCCCGGAUAAAAGUGGAGCGGGCGG [C21U G48C]" value_kind=self-cleavage recorded_measurement=0.11
seq_string="CCGCCUAACACUGCCAAUGCCGGUCCGAAGCCCGGAUAAAAGUGGGGGGGGCGG [A46G C27G]" value_kind=self-cleavage recorded_measurement=0.04
seq_string="CCGCCUAACACUGCCAGUGCCGCUCCCAAGCCCGGAUAAAAGUGGAGGGGGCGG [A17G G23C]" value_kind=self-cleavage recorded_measurement=0.08
seq_string="CCGCCUAACACUGCCAAUGCCGGUCCCAAGCCGGGAUAAAAGUGGAGGGGGCGA [C33G G54A]" value_kind=self-cleavage recorded_measurement=0.08
seq_string="CCGCCUAACACUGCCAAUGCCGUUCCCAAGCCCGGAUAAAAGUGGAGGGGGCUG [G23U G53U]" value_kind=self-cleavage recorded_measurement=0.06
seq_string="CCGCCUAACACUGCCAAAUCCGGUCCCAAGCCCGGAUAAAAGUGGAGGGGGCGG [G19U U18A]" value_kind=self-cleavage recorded_measurement=0.11
seq_string="CCGCCUAGCACUGCCAAUGCCGGACCCAAGCCCGGAUAAAAGUGGAGGGGGCGG [A8G U24A]" value_kind=self-cleavage recorded_measurement=0.12
seq_string="CCGCCUAACACUGCCUAUGCCGGUUCCAAGCCCGGAUAAAAGUGGAGGGGGCGG [A16U C25U]" value_kind=self-cleavage recorded_measurement=0.84
seq_string="CCGCCUAACACUGCCAAUACCGGUCCCAAGCCCGGAUAGAAGUGGAGGGGGCGG [A39G G19A]" value_kind=self-cleavage recorded_measurement=0.7
seq_string="CCGCCUAACACUGCCAAUGCCGGUCCCAAGCCCGGAUAAAAGUGGCGGGGGCGA [A46C G54A]" value_kind=self-cleavage recorded_measurement=0.09
seq_string="CCGCCUAACACUGCCAAUGCCGGUCCCAAGCGCGGAUAAAAGUGCAGGGGGCGG [C32G G45C]" value_kind=self-cleavage recorded_measurement=0.03
seq_string="CCGCCUAACACUGCUAAUGCCGGUCCCAAGCCCGGAUAAAAGUCGAGGGGGCGG [C15U G44C]" value_kind=self-cleavage recorded_measurement=0.23
seq_string="CCGCCUAACACUACCAAUUCCGGUCCCAAGCCCGGAUAAAAGUGGAGGGGGCGG [G13A G19U]" value_kind=self-cleavage recorded_measurement=0.04
seq_string="CCGCCUAACACUGCCAAUGCCGGUCCCAUGCCCGGAUAAAAGUGGUGGGGGCGG [A29U A46U]" value_kind=self-cleavage recorded_measurement=0.04
seq_string="CCGCCUAACACUGCCAAUGCCGGUCCCAAGCCCGGAUAAAAGUGGGGUGGGCGG [A46G G48U]" value_kind=self-cleavage recorded_measurement=0.02
seq_string="CCGCCUAACACUGCCAAUGCUGGUACCAAGCCCGGAUAAAAGUGGAGGGGGCGG [C21U C25A]" value_kind=self-cleavage recorded_measurement=0.11
seq_string="CCGCCUAACGCUGCCAAUGCCGGUCCCAAGCCCGGAUAAAAGUGGGGGGGGCGG [A10G A46G]" value_kind=self-cleavage recorded_measurement=0.08
seq_string="CCGCCUAACACUGCCAAUGCCGGUCCCAAGCCCCUAUAAAAGUGGAGGGGGCGG [G34C G35U]" value_kind=self-cleavage recorded_measurement=0.28
seq_string="CCGCCUAACACUGUCAAUGCCGGUCCCAAGCCCGGACAAAAGUGGAGGGGGCGG [C14U U37C]" value_kind=self-cleavage recorded_measurement=0.57
